- System: mice with Alzheimer (AD model)
- assaySummary: Morris water maze detection of behavioral changes in mice with Alzheimer
- Type: in vivo
- condition: 5th Area (platform); spatial probe test, sixth day
Below, each entry is listed alongside its reported Number of stays.
The figure you give is taken to be in times; do not add the unit.

1. NS(=O)(=O)NCCNc1nonc1C(=Nc1ccc(F)c(Br)c1)NO [INCB024360, reference compound] = 2.1
2. N=C(NCCNc1nonc1/C(=N/O)Nc1ccc(F)c(Br)c1)NS(=O)(=O)c1ccccc1 = 3.5

Request: Report Number of stays for N/C(=N\C(=O)C1CCC1)NCCCNc1nonc1/C(=N/O)Nc1ccc(F)c(Br)c1 please.
Response: 3.9
